- Tested on: K4 kissing-loop RNA reporter;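 also: bound reporter read as fluorescence of individual clusters on recovered sequencing chips by microscopy, with normalized cluster intensities fitted with a binding model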
- protocol.summary: apparent KD of K4 kissing-loop reporter; higher = weaker reporter binding
- test.parameters: Eterna round: R107; input ligand: FMN 200 uM

{"columns": ["input.sequence", "result.unit", "apparent KD of K4 kissing-loop reporter"],
 "data": [
  ["UACAUAUCACUUUUUCUACAAUUAUUUAGUCAGGAUAUCGAUUAAACGAGAAGGGACAUUAUCAAGUGAUGUUUGAUAAUUCAAA [JR_Nu_SSFMNA_Sub028]", "nM", 156],
  ["ACCAUCAAAGAUGGCCAGGACUCAACUGAUACCAGAGUGGAGACACUCCCUUGGCAGCAGGUGAGUGAUGUUCACGAGUCCUGGA [Omel KL Theo A SS B v9]", "nM", 1000],
  ["AAAAUAAACCAGUGAUGUUGGUGUGUAGAUACCAGCGACGAAAGUCGCCCUUGGCAGCUGUGGACGUACAAAAUAAGUACGUCCU [MatMod 23 - Jieux - Same State - Theophylline A]", "nM", 315]
]}

Cited source for all entries: the supplement of paper PMC9170038
